- Tested on: RPMI-8226 leukemia
- testSummary: NCI tumour cell line growth inhibition, 48 h
A collection of compounds and their measured TGI

{"compound": "COC(=O)c1cc(-c2cc(OC)c(OC)c(OC)c2)[nH]c1N/N=C/c1c(Cl)cccc1Cl", "TGI": "> 34.4 µM"}
{"compound": "COc1ccc(C2C3CCc4ccccc4C3=NN2S(=O)(=O)c2ccc(Cl)cc2)cc1 (centres undefined)", "TGI": "51.3 µM"}
{"compound": "CCN(CCNc1ccc(C)c2sc3cc(Cl)ccc3c(=O)c12)CC(C)O (centres undefined)", "TGI": "3.67 µM"}
{"compound": "N#Cc1cccc(C(=O)Nc2cccc(NC(=O)c3cccc(C#N)c3)c2)c1", "TGI": "> 100 µM"}
{"compound": "O=c1[nH]/c(=C/c2ccc(OCc3ccccc3)cn2)c(=O)[nH]/c1=C/c1ccc(Cl)cc1", "TGI": "> 100 µM"}
{"compound": "Cc1cc(OCc2nn(CN3CCN(C)CC3)c(=S)n2/N=C/c2ccc(-c3ccc(Cl)cc3Cl)o2)ccc1Cl", "TGI": "> 100 µM"}
{"compound": "C=C1C(=O)OC2C1CC[C@H](C)C13OC(=O)CC1[C@@]23C (some centres undefined)", "TGI": "> 100 µM"}
{"compound": "CN1CCN(c2cc3c(cc2F)c(=O)c(C(=O)O)cn3C2CC2)CC1CC#N (centres undefined)", "TGI": "> 100 µM"}
{"compound": "C/C([O-])=C1\\Cc2ccccc2C1=O.C/C([O-])=C1\\Cc2ccccc2C1=O.CC[O-].CC[O-].[Ti+4]", "TGI": "68.8 µM"}
{"compound": "O=C1CCCCC1=C(I)I", "TGI": "53.4 µM"}
{"compound": "C/C(=N\\Nc1ccccc1Br)c1cccc(/C(C)=N/Nc2ccccc2Br)n1", "TGI": "> 100 µM"}
{"compound": "[C-]#[O+].[C-]#[O+].[C-]#[O+].[C-]#[O+].[Ir].[Ir].[O-]c1ccc2ccccc2c1C=Nc1ccc(N=Cc2c([O-])ccc3ccccc23)cc1", "TGI": "> 100 µM"}
{"compound": "CN(C)c1ccc(-c2cc(-c3ccc(Nc4nc(Nc5ccccc5)nc(Nc5ccc(Cl)cc5)n4)cc3)nc(N)n2)cc1", "TGI": "20 µM"}
{"compound": "COc1ccc(C2=NN(C(=O)COc3ccc(Cl)cc3)C(O)(c3ccc(Cl)cc3)C2)cc1 (centres undefined)", "TGI": "> 100 µM"}
{"compound": "CC1=C(C(=O)Nc2cccc(Cl)c2)C(c2ccc([N+](=O)[O-])cc2)C(C(=O)Nc2cccc(Cl)c2)=C(C)N1", "TGI": "83.4 µM"}
{"compound": "CC(C)[C@@]12C[C@@H](OC(=O)COC(=O)/C=C/c3ccccc3)[C@@](C)(O1)[C@@H]1CC[C@@H](C)[C@H]1[C@@H]2OC(=O)/C=C/c1ccccc1", "TGI": "> 100 µM"}
{"compound": "N=C(N)C(N=Nc1ccccc1)C(N)=O (centres undefined)", "TGI": "> 100 µM"}
{"compound": "Cc1cccc(NC(=O)c2cc3cc(N=Nc4ccccc4Cl)ccc3oc2=O)c1", "TGI": "> 100 µM"}
{"compound": "COc1cc2c3c(n(CCCNCC(OC)OC)c(=O)c2cc1OC)-c1cc2c(cc1C3=O)OCO2", "TGI": "0.197 µM"}
{"compound": "OCC1OC(NCCNCCNC2OC(CO)C(O)C(O)C2O)C(O)C(O)C1O (centres undefined)", "TGI": "> 100 µM"}
{"compound": "O=C1/C(=C/c2ccc3c(c2)OCO3)CCC1CN1CCOCC1 (centres undefined)", "TGI": "1.73 µM"}
{"compound": "CCCCNc1c(CN)cnc2cc(Cl)ccc12", "TGI": "37 µM"}
{"compound": "Nc1ccc(C(=O)NN2C(=O)C(Cl)C2c2cc(Br)ccc2O)cc1 (centres undefined)", "TGI": "> 100 µM"}
{"compound": "CC1CC2C(=O)N(c3ccccc3)C(=O)C2c2c1c1ccccc1n2Cc1ccccc1 (centres undefined)", "TGI": "> 100 µM"}
{"compound": "Cc1cc(C)c2c(c1)Nc1ccccc1P2c1ccccc1 (centres undefined)", "TGI": "26.7 µM"}
{"compound": "Cc1nn(-c2ccccc2)c2c1CC(=O)Nc1ccccc1-2", "TGI": "0.456 µM"}
{"compound": "NC1=NNC2(C(=O)N1)c1ccccc1-c1ccccc12", "TGI": "> 10 µM"}
{"compound": "CCN(CCCN(CC)C(=O)Nc1ccccc1)C(=O)Nc1ccccc1", "TGI": "> 100 µM"}
{"compound": "COc1ccc(N=Nc2ccc3oc(=O)c(C(=O)Nc4ccccc4)cc3c2)cc1", "TGI": "> 10 µM"}
{"compound": "CCCCCCCCC(=O)N(C)C1C2CN3CCC(O2)C13 (centres undefined)", "TGI": "> 100 µM"}
{"compound": "COc1cccc(Nc2nc(-c3cccs3)nc3ccc(Br)cc23)c1", "TGI": "> 100 µM"}
{"compound": "COC(=O)[C@@H](O)[C@]1(C(=O)OC)C2O[C@@H](OC)[C@@H]1CCCCCC[C@H]2O", "TGI": "> 100 µM"}
{"compound": "OCC(O)C(OC1OC(CO)C(O)C(O)C1O)c1nn(-c2ccccc2)c2nc3cc(Cl)c(Cl)cc3cc12 (centres undefined)", "TGI": "> 100 µM"}
{"compound": "Cc1nc2sc(C(=O)Nc3cccc4ccccc34)c(N)c2cc1C(=O)/C=C/c1ccccc1", "TGI": "0.5 µM"}
{"compound": "CCOP1(=O)C=C(Sc2ccc([N+](=O)[O-])cc2[N+](=O)[O-])C(C)(C)O1 (centres undefined)", "TGI": "39.2 µM"}
{"compound": "COc1cc(-c2c(C#N)c(N)c(C#N)c3c2COc2ccccc2-3)cc(OC)c1OC", "TGI": "> 100 µM"}
{"compound": "Cc1ccc(/C=C2/SC(Nc3nc(-c4nc(NC5=NC(=O)/C(=C\\c6ccc(C)cc6)S5)sc4C)c(C)s3)=NC2=O)cc1", "TGI": "> 15 µM"}
{"compound": "COC1(O)C(=O)c2ccccc2OC1(OC)c1ccccc1 (centres undefined)", "TGI": "> 100 µM"}
{"compound": "CCOP(=O)(OCC)/C(C#N)=C/c1ccc(-c2ccc(F)cc2F)o1", "TGI": "51.9 µM"}
